- Read-out: Urokinase-type plasminogen activator receptor (uPAR), PLAUR (gene 5329)
- method.notes: BSK_BE3C_uPAR: BioMAP Diversity Plus: BE3C Assay for Urokinase-type plasminogen activator receptor (uPAR) Biomarker Activity (AID 2283039);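 for outcome: uPAR protein level measured by ELISA on the cells; cells exposed to compound for one day before measurement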
- condition.info: primary human bronchial epithelial cells; actives raise or lower the signal
Active and inactive are the calls of the source. Rule for the calls: active = hit-call score of the fitted dose curve at least 0.9, where 1 is the maximum; inactive = score below 0.9.
Your response should consist of one outcome taken from t for active, f for inactive

Query: What was the test verdict on CNC(=O)Oc1ccccc1OC(C)C ?
Response: f

Query: What was the test verdict on N#CN ?
Response: f

Query: Dear all, I need the recorded test outcome for COc1cc(OC)nc(NC(=O)NS(=O)(=O)c2cc(NC=O)ccc2C(=O)N(C)C)n1 , thank you.
Response: f

Query: Assay result, entry O=C(O)COc1ccc(Cl)cc1Cl — outcome?
Response: t

Query: Per the assay record, what outcome was assigned to CCN(CC)C(=O)SCc1ccc(Cl)cc1 ?
Response: f

Query: What did this assay record as the result for CC[C@H](C)[C@H]1O[C@]2(C=C[C@@H]1C)C[C@@H]1C[C@@H](C/C=C(\C)[C@@H](O[C@H]3C[C@H](OC)[C@@H](O[C@H]4C[C@H](OC)[C@@H](O)[C@H](C)O4)[C@H](C)O3)[C@@H](C)/C=C/C=C3\CO[C@@H]4[C@H](O)C(C)=C[C@@H](C(=O)O1)[C@]34O)O2 (tested in a mixture with another compound) ?
Response: t

Query: Hi, do you know how ClC1C(Cl)C(Cl)C(Cl)C(Cl)C1Cl (stereo not given) came out in this test?
Response: f

Query: Could you please tell me the result logged for O=[N+]([O-])c1c(Cl)c(Cl)c(Cl)c(Cl)c1Cl in this assay?
Response: f

Query: What is the recorded call for this molecule in the test? O=C(Nc1ccccc1)Nc1cnns1
Response: f

Query: Assay outcome for CC(C)OC(=O)Nc1cccc(Cl)c1 : what was it?
Response: f
